Test system: LRO4
test_description: Phage ELISA, binding of phage clones to coated LRO4
Set-up: species or system murine
condition_details: Table 2A, Ph.D.-12 library clones; 10^10 pfu/ml; OD 405-490 nm
readout_kind: Binding of phages to LR04 (OD)
Give your result in OD as a bare value.

# lookup: Binding of phages to LR04 of HRMTNAMHHFMG [A38]
0.64

Reported Binding of phages to LR04 for HRISNYAMELHS [G4] : what is it?
1.45

Return reported Binding of phages to LR04; argument: QSYTNDDVLRIS [M19]
1.67

Look at this sequence and give its reported Binding of phages to LR04. HQLSNKDEQTPQ [A33]
0.63

Please look up its Binding of phages to LR04: NSRTNNSQWTFQ [A34]
0.82

Which Binding of phages to LR04 reading was recorded for the sequence ESWNTNSWAMYFG [M2] ?
1.17

What value of measured Binding of phages to LR04 is listed for HRMTNNAMDVFM [M6, G10] ?
1.56

Given HSWSNYWGHQHA [A32] , state its recorded Binding of phages to LR04.
0.98

So what does the record say about Binding of phages to LR04 for QNMNNWTLASIM [A31] ?
0.85

Fill blank: measured Binding of phages to LR04 of the sequence HSLTNTQMTQLS [M31] is ____.
1.35

For the sequence NSWTNASLSTFH [A40] , what Binding of phages to LR04 is on record?
0.89

For the sequence shown here, ASISNLTLSRFM [M15] , give the reported Binding of phages to LR04.
1.34

Return reported Binding of phages to LR04; argument: HRLTNSEQAALP [M3, M5]
1.56

Entry EVMNNWTLASIM [M30] : reported Binding of phages to LR04 = ?
1.04

Using the record for HSLSNIQMATLA [M10, G8] , report its Binding of phages to LR04.
1.16

// query Binding of phages to LR04 value for entry GWGNKTPSQDVH [A39]
1.19

For TAVTNSMMERLW [M8] , what is its reported Binding of phages to LR04?
1.57

Report Binding of phages to LR04 for ADPFSPTNRIPL [M7] please.
1.37

Could you tell me which Binding of phages to LR04 is on file for ESWTNSWAHYFG [A36, B41, M35] ?
1.16
